target: T1, Recombinant SARS-CoV-2 N protein His tagged (SARS-CoV-2, UniProt P0DTC9 1-419); experiment: BLI (Octet Red 96E), mAb on anti-mouse Fc biosensor, N protein in solution, global 1:1 fit
T1 construct: also called nucleocapsid (N) protein; recombinant HIS tagged SARS-CoV-2 N protein
pKd: −log10 of the molar value.
// label = Condition met if pKd is not less than 10, otherwise Condition not met

Worked cases, answers included:
{"binder": "SCT-Pa05 (antibody, mouse IgG1, kappa, V domains shown) VH: EVQLQQSGAELVKPGASVKLSCTTSGFNIKDYYFHWVKQRTEQGLEWIGRIDPEDGETEYAPKFRDKATITADTSSNTAYLQLSSLTSEDTAIYYCARSLYYWGQGTTLTVSS VL: DIVMTQSPSSLSVWAGEKVTMSCKSSQSLLNSGDQKNYLTWYQQKPGQSPKLLIYETSTRDYGVPDRFTGSGSGADFTLTISSVQAEDLAVYYCLNDLTYPLTFGAGTKLELKR", "group.label": "Condition not met"}
{"binder": "SCT-Pa20 (antibody, mouse IgG1, kappa, V domains shown) VH: QVQLQQPGAELVKPGASVKLSCKASGYTFTDYWINWVKQRPGQGLEWIGNIYPGSSDTNYNEKFKRKATLTVDTSSSTAYMQLSSLTSDDSAVYYCARRPLFHAMDYWGQGTSVTVSS VL: DIVLTQSPASLAVTLGQRATISCKASQSINYNGDNYMHWFQQKPGQPTKLLIYTASNLESGVPDRFSGSGSGTDFTLNIHPVEEEDAATYYCQQSKEFPWTFGGGTKLEIKR", "group.label": "Condition met"}
{"binder": "SCT-Pa16 (antibody, mouse IgG1, kappa, V domains shown) VH: QVQLQQPGTELVKPGASVKLSCKASGYTFTSYWMHWVKQRPGQGLEWIGSVNPSNGGANYNEKFKNKATLTVDKSSSTAYMQLSSLTSEDSAVYYCARRNGFPYYFDYWGQGTTLTVSS VL: DIVMTQSQKFVSTSVGDRVSVTCKASQNVGTNVVWYQQKPGQSPKPLIYSASYRYSGVPDRFTGSGSGTDFTLTISNVQSEDLADYFCHQYNSSPLTFGVGTKLELKR", "group.label": "Condition not met"}
{"binder": "SCT-Pa04 (antibody, mouse IgG1, kappa, V domains shown) VH: EVQLQQSGPELVKPGASVKMSCKASGYSFTSYVMHWVKQKPGQGLEWIGYINPYNDGTKYNEKFKGKATLTSDKSSSTAFMDLSSLTSDDSAVYYCSRDDYSNPPFAYWGQGTLVTVSA VL: SIVMTQTPKFLLVSAGDRITITCKASQSVSNNVAWYQQKPGQSPTLLISYASNRFTGVPDRFTGSGYGTDFTFTISIVQAEDLAVYFCQQDYDSPYTFGGGTKLEIKR", "group.label": "Condition met"}
{"binder": "SCT-Pa08 (antibody, mouse IgG1, kappa, V domains shown) VH: QVQLHQSGAELVKPGASVKLSCKASGYTFTEYSIHWVKQRSGQDLEWIGWFNPGTGSIKYNEKFKDKATLTADKSSSTVYMELSRLTSEDSAVYFCARHGGRWVIQWNFDVWGTGTTVTVSS VL: DIVMSQSPSSLAVSVGEKVTMSCKSSQNLLYSSNQKNFLAWYQQRPGQSPKLLIYWASTRESGVPDRFTGSGTGTDFTLTISSVKAEDLAVYYCQQYYRYPFTFGSGTKLEIKR", "group.label": "Condition not met"}

Query: Confirm if pKd reported for the binder SCT-Pa10 (antibody, mouse IgG1, kappa, V domains shown) VH: QVQLQQSGPELVKPGASVKISCKASGYAFSTSWMNWMKQRPGKGLEWIGRIYPGDGETNYNGKFKGKATLTADKSSSTAYMQLSSLTSDDSAVYFCARGANGDYLFYLDYWGQGTTLTVSS VL: DIQMTQTTSSLSASLGDRVTISCSASQDISDFLNWYQQKPDGTVKLLIYYTSSLHSGVPSRFSGSGSGTDYSLTINNLEPEDIATYYCQQYSKLPYTFGGGTKLEIRR is 10 or above.
Reply: Condition not met

Query: Answer whether pKd of SCT-Pa12 (antibody, mouse IgG1, kappa, V domains shown) VH: QVQLQQSGAELARPGASVKLSCKASGYSFTSYGISWVKQRTGQGLEWIGDIYPRSGNTDYNEKFKGKATLTADKSSSTANMQLSSLTSEDSAIYFCARSGDGYLYAMDYWGQGTSVTVSS VL: DIQMTQTTSSLSASLGDRVTISCRASQDISNYLNWYQQKPDGTVKLLIYYTSRLHSGVPSRFSGSGSGTDYSLTISNLEPEDIAPYYCQQYSKLPYTFGSGTKLEIKR is greater than or equal to 10.
Reply: Condition not met
